The reported numbers originate from ChEMBL document CHEMBL3885881.

organism: Rattus norvegicus; assay: DrugMatrix - Regimen: Daily Repeat; type: toxicity, organism-based, Sprague-Dawley; parameters: regimen Daily Repeat, gender Male, age 6-8 weeks; conditions: in vivo, po, 10 mg/kg, 72 h, tissue Plasma, route oral GAVAGE, dose level Low, time 3 day, vehicle .5 % CMC
READOUT LABEL: ASPARTATE AMINOTRANSFERASE (u/L)
Give bare numbers, in u/L.

MOLECULE: COc1c(C)c2c(c(O)c1C/C=C(\C)CCC(=O)OCCN1CCOCC1)C(=O)OC2 [MYCOPHENOLATE MOFETIL]
ASPARTATE AMINOTRANSFERASE, u/L: 110.33
//
MOLECULE: O=C1CN=C(c2ccccc2)c2cc([N+](=O)[O-])ccc2N1
ASPARTATE AMINOTRANSFERASE, u/L: 76.67

Look up ASPARTATE AMINOTRANSFERASE for the entries below, preserving their order.
1. NS(=O)(=O)c1cc2c(cc1Cl)NCNS2(=O)=O [HYDROCHLOROTHIAZIDE]
2. CC(=O)O[C@]1(C(C)=O)CC[C@H]2[C@@H]3C=C(Cl)C4=CC(=O)CC[C@]4(C)[C@H]3CC[C@@]21C [CHLORMADINONE ACETATE]

1: 90.67; 2: 70.67
